List of % inhibition values.
# MEASURED_ON: T1, wild type full length EGFR purified from A431 cells (human, UniProt P00533 25-1210)
# T1 construct: mature; Bought; coated on ELISA wells; also called full length EGFR receptor antigen; Sigma E3641
# EXPERIMENT_SUMMARY: competition ELISA, competitor Ab-1
# Parameters: concentration or dose not given beside the values

# BINDER, % inhibition, %
data = [
    ("antibody 1208 (antibody, human IgG1, kappa, V domains shown, Chimeric IgG1 kappa; also called clone 1208) VH: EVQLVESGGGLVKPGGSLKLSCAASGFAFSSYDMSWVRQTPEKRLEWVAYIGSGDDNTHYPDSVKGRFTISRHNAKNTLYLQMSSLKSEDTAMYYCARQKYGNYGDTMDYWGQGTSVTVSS VL: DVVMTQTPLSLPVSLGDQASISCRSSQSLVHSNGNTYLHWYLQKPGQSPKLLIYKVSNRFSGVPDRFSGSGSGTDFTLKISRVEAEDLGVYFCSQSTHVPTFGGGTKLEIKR", 82),
    ("antibody 1320 (antibody, human IgG1, kappa, V domains shown, Chimeric IgG1 kappa) VH: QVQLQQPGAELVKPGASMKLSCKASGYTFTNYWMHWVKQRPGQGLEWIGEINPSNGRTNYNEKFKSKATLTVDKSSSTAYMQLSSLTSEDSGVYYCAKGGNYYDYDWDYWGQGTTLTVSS VL: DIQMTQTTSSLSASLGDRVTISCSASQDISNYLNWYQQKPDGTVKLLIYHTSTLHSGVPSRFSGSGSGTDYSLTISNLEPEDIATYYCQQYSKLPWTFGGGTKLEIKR", 9),
    ("antibody 1024 (antibody, human IgG1, kappa, V domains shown, Chimeric IgG1 kappa) VH: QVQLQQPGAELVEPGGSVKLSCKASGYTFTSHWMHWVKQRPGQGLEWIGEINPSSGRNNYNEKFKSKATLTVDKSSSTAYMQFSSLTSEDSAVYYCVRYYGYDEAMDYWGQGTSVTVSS VL: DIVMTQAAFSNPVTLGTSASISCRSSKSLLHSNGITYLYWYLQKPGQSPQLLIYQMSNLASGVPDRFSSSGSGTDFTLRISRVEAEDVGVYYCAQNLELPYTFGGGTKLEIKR", 3),
]

Entry source: patent US20110135636A1
